- ASSAYED_SYSTEM: T1, HLA-A*24:02 molecule
- T1 construct: MHC class I molecule on C1R-A24 cells, endogenous peptide and b2m stripped at pH 3.3, purified b2m added back; also called product of an HLA-A*24:02 gene; allele A*24:02
- TEST_DESCRIPTION: flow cytometry, C1R-A24 cells;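 further: Read-out was the amount of peptide–MHC complex on each cell, taken as the fluorescence intensity of a bound fluorescent antibody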
MEASUREMENT_KIND: log10 Kd (M)

> print(dat)
                                     binder  observed.value
1  AQAPPTAQL (synthetic 9-mer derived from c-Myb) [peptide of SEQ ID NO: 5]           -5.75
2  SLVLTWAAL (synthetic 9-mer derived from EVC2) [peptide of SEQ ID NO: 14]           -5.31
3  GYITCERPF (synthetic 9-mer derived from Helios) [peptide of SEQ ID NO: 65]           -6.52

P. KFLEAFHEV (synthetic 9-mer derived from EVC1) [peptide of SEQ ID NO: 8]
Q. AVLAPAVLL (synthetic 9-mer derived from EVC1) [peptide of SEQ ID NO: 27]
Please tell me which of the two, P or Q , has the higher reported log10 Kd (M) value. Identify your selection by its label.
Q
